Listed here are molecules together with their documented selectivity ratio.
protocolSummary: Antiangiogenic index, ratio of LC100 for 24 to 72 hrs post fertilized zebra fish embryo harboring fli1:EGFP to MEC for antiangiogenic activity in 24 to 72 hrs post fertilized zebra fish embryo harboring fli1:EGFP
Format: toxicity, organism-based, Danio rerio
conditionParameters: fli1:EGFP transgenic, zebrafish, in vivo
# answer = number (no unit)

Completed entries (count: 4):
smi | measureName | testValue
O=C(COc1c(O)cc2oc(-c3ccccc3)cc(=O)c2c1O)NCCO | selectivity ratio | 1
CC(C)=CCOc1cc2oc(-c3ccccc3)cc(=O)c2c(O)c1O | selectivity ratio | 2
O=C(COc1c(O)cc2oc(-c3ccccc3)cc(=O)c2c1O)N1CCC(O)CC1 | selectivity ratio | 2
O=C(COc1c(OCc2ccccc2)cc2oc(-c3ccccc3)cc(=O)c2c1O)N1CCOCC1 | selectivity ratio | 2

Please find the next molecule below.
The reported selectivity ratio of the molecule O=c1cc(-c2ccccc2)oc2cc(O)c(OCCCO)c(O)c12 was 6
